Assign pIC50 (REN) to each entry below.
molecular target: RORγ (UniProt P51449); experiment: RORγ Gal4 Reporter Gene Assay in 293T cells (firefly and renilla luciferase); type: cell-based, human; settings: third value of the cell; Gal4 reporter gene assay in 293T cells, renilla normalised luciferase
Numbers only.

1. CC(=O)N1CC(NC(=O)c2cc(-c3cc(C(C)(C)C)cc(C(C)(C)C)c3)n(CC3CCCCC3)c2C)C1 ... 7.2
2. Cc1c(C(=O)N[C@H]2C[C@H](C(=O)O)C2)cc(-c2ccc(S(=O)(=O)NCC(F)(F)F)c3ccccc23)n1CC1CCCCC1 ... 7.1

Consider the record given below.
Exam item: Need pIC50 (REN) of Cc1c(C(=O)NC2CCOCC2)cc(-c2cc(Cl)cc(C(=O)NC(C)(C)C)c2)n1CC1CCCCC1 , thanks.
Marked response: 7.0
